# tgt: IKZF2 (Homo sapiens, UniProt Q96SW2+Q9UKS7)
# Construct: expressed in transfected cells
# Sequence (Q9UKS7 1-500 isoform Q9UKS7-2): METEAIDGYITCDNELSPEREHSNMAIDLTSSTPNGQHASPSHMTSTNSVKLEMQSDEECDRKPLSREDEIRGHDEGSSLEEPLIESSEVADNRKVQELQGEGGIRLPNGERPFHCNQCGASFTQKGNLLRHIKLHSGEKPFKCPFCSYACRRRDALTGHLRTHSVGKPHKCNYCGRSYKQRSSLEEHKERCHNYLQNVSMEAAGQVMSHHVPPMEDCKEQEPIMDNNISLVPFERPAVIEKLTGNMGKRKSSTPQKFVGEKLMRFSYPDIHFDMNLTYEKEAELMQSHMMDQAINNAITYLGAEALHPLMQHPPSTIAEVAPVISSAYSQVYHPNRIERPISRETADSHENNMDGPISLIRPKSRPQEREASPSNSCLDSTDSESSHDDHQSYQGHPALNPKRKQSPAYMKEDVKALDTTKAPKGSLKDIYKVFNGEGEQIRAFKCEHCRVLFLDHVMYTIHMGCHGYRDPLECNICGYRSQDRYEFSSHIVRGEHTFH
# Sequence (Q96SW2 whole entry): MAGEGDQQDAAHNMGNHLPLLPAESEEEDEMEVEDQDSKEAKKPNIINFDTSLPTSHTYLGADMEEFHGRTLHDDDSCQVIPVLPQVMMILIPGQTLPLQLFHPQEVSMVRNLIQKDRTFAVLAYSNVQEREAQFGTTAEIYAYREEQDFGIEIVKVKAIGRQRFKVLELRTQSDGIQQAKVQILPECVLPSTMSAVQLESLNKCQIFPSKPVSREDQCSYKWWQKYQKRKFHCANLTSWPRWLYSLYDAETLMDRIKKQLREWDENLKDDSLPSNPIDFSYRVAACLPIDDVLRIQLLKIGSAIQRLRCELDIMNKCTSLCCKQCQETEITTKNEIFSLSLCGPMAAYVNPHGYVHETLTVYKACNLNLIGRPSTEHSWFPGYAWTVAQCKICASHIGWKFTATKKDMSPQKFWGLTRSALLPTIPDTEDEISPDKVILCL
# Sequence (Q16531 whole entry partner): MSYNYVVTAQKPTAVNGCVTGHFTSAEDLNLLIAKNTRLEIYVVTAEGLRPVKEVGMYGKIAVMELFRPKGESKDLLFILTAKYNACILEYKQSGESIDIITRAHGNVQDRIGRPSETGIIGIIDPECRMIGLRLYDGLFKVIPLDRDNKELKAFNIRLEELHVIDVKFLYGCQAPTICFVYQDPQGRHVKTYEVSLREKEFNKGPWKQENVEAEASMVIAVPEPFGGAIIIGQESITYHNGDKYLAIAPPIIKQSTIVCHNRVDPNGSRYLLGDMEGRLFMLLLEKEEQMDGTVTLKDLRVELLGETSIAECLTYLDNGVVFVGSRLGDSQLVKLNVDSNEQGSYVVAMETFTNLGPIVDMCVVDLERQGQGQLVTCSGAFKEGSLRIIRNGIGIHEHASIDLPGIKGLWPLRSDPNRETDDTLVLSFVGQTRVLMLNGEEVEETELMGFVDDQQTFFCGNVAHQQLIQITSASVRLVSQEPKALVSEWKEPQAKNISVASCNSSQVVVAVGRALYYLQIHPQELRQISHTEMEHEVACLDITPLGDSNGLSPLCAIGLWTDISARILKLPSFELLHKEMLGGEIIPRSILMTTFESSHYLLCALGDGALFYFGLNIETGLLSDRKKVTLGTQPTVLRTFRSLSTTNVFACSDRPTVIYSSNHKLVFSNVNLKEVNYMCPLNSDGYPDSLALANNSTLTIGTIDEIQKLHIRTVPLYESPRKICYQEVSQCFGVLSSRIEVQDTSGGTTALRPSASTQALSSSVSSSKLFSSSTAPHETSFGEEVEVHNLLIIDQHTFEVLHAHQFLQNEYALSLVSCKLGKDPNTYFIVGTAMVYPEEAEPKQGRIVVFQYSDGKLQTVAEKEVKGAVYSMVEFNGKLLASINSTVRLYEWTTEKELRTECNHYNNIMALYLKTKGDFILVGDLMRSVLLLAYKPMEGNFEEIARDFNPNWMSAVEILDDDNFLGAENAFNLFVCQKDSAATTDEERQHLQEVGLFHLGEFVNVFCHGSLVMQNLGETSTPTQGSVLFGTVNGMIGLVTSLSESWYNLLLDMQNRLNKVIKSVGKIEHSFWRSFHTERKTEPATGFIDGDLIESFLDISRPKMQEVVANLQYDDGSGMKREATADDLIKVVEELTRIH
# protocolSummary: HiBiT protein tagging assay, in vitro IKZF2 degradation (HEK293)
# Type: cell-based
# details: IKZF2-HiBiT reporter Flp-In T-REx HEK293 cells, doxycycline-induced, compound overnight (18-24 hr), normalized to DMSO control; read-out: IKZF2 Dmax (maximum degradation at the highest concentration tested)
# Procedure: In vitro degradation of IKZF1 and IKZF2 was measured using HiBiT protein tagging and detection technology (Promega). HiBiT technology (Promega) was used to develop the quantitative assays to measure the cellular IKZFs level by tagging an 11 amino acid HiBit peptides VSGWRLFKKIS (SEQ ID NO:1) to the protein of interest. Reporter plasmids were generated by fusing a linker sequence (GSSGGSSG; SEQ ID NO:2) followed by the HiBiT tag at the C terminus of IKZF1 and IKZF2. […]
Measured Dmax, listed per entry.
# output: bare number, implied unit %

Some solved entries appear below for comparison.
Could you tell me which Dmax is on file for O=C1CCC(N2Cc3cc(OC4CN(Cc5ccccc5)CCC4NC4CC4)ccc3C2=O)C(=O)N1 (racemic) ?
94

Could you tell me which Dmax is on file for N#CCN1CCC(NCc2ccccc2)C(Oc2ccc3c(c2)CN(C2CCC(=O)NC2=O)C3=O)C1 (racemic) ?
28

Could you tell me which Dmax is on file for O=C1CCC(N2Cc3cc(O[C@H]4CN(Cc5cccc(F)c5F)CC[C@@H]4NCc4ccccc4)ccc3C2=O)C(=O)N1 (mixture of isomers) ?
86

Could you tell me which Dmax is on file for COc1ccc(CN2CC[C@H](NCc3ccccc3)[C@@H](Oc3ccc4c(c3)CN(C3CCC(=O)NC3=O)C4=O)C2)cc1 (mixture of isomers) ?
94

Could you tell me which Dmax is on file for CC(C)N[C@H]1CCN(Cc2ccn(C)n2)C[C@@H]1Oc1ccc2c(c1)CN(C1CCC(=O)NC1=O)C2=O (stereo partly drawn) ?
34

Consider now this further molecule.
Could you tell me which Dmax is on file for O=C1CCC(N2Cc3cc(O[C@H]4CN(Cc5ccc(-c6ccccc6)cc5)CC[C@@H]4NCc4ccccc4)ccc3C2=O)C(=O)N1 (mixture of isomers) ?
101

* * *

# tgt: IKZF2 (Homo sapiens, UniProt Q96SW2+Q9UKS7)
# Construct: expressed in transfected cells
# protocolSummary: HiBiT protein tagging assay, in vitro IKZF2 degradation (HEK293)
# Format: cell-based
# details: IKZF2-HiBiT reporter Flp-In T-REx HEK293 cells, doxycycline-induced, compound overnight (18-24 hr), normalized to DMSO control; read-out: IKZF2 Dmax (maximum degradation at the highest concentration tested)
Measured Dmax, listed per entry.
# output: bare number, implied unit %

Could you tell me which Dmax is on file for O=C1CCC(N2Cc3cc(OC4CN(Cc5ccccc5)CCC4N(C4CC4)C4CC4)ccc3C2=O)C(=O)N1 (racemic) ?
82

Could you tell me which Dmax is on file for CCNC1CCN(Cc2ccc3ccccc3c2)CC1Oc1ccc2c(c1)CN(C1CCC(=O)NC1=O)C2=O (racemic) ?
96

Could you tell me which Dmax is on file for O=C1CCC(N2Cc3cc(O[C@H]4CN(Cc5ccc(F)cc5)CC[C@@H]4NCc4ccccc4)ccc3C2=O)C(=O)N1 (mixture of isomers) ?
97

Could you tell me which Dmax is on file for CCN[C@H]1CCN(Cc2ccc(F)cc2F)C[C@@H]1Oc1ccc2c(c1)CN(C1CCC(=O)NC1=O)C2=O (mixture of isomers) ?
97

Could you tell me which Dmax is on file for N[C@H]1CCN(Cc2ccccc2)C[C@@H]1Oc1ccc2c(c1)CN(C1CCC(=O)NC1=O)C2=O (stereo partly shown) [Example 42a] ?
98

Could you tell me which Dmax is on file for O=C1CCC(N2Cc3cc(OC4CN(Cc5ccccn5)CCC4NCc4ccccc4)ccc3C2=O)C(=O)N1 (racemic) ?
64

Could you tell me which Dmax is on file for CS(=O)(=O)NC1CCN(Cc2ccccc2)CC1Oc1ccc2c(c1)CN(C1CCC(=O)NC1=O)C2=O (stereo not shown) ?
62
